The reported measurements were obtained from patent US20250214999A1.

# Target System: GLP-1 Receptor (Homo sapiens (Human), UniProt P43220)
# Sequence (P43220 24-463): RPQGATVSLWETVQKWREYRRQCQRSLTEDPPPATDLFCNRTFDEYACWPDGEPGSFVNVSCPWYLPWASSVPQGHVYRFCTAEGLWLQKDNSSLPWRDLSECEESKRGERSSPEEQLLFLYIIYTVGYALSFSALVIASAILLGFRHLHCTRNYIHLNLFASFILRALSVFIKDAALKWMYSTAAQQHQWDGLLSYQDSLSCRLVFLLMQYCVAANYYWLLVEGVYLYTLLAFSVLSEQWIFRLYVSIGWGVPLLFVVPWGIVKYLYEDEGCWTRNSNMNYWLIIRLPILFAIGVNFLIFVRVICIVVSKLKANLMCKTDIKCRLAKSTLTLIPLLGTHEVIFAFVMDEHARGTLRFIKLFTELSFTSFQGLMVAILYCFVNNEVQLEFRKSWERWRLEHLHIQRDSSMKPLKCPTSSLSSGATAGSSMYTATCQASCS
# Experiment Notes: GLP-1R agonist cAMP stimulation assay (HEK293/GLP1R/CRE-LUC cells)
# Run Conditions: 30 min incubation, read-out: GLP1R cAMP Stimulation DR: EC50
# key: entry, value: EC50

Molecule: O=C(O)c1ccc2nc(CN3CCC(c4cccc5c4OCC(c4ccccc4F)C5)CC3)n(C[C@@H]3CCO3)c2n1 (stereo partly shown) [Compound 122a]
EC50: 20 to 200 nM

Molecule: N#Cc1ccc([C@@H]2COc3c(cccc3C3CCN(Cc4nc5ccc(C(=O)O)nc5n4C[C@@H]4CCO4)CC3)O2)cc1 [Compound 118b]
EC50: ≤ 0.2 nM

Molecule: O=C(O)c1ccc2nc(CN3CCN(c4cccc5c4OCC(c4ccc(Cl)cc4F)C5)CC3)n(C[C@@H]3CCO3)c2n1 (stereo partly shown) [Compound 121a]
EC50: 20 to 200 nM

Molecule: O=C(O)c1ccc2nc(CN3CCC(c4cccc5c4OC[C@@H](c4ccc(Cl)cc4F)O5)CC3)n(C[C@@H]3CCO3)c2c1 [Compound 120b]
EC50: 0.2 to 20 nM

Molecule: O=C(O)c1ccc2nc(CN3CCC(c4cccc5c4OCC(c4ccc(F)cc4)O5)CC3)n(C[C@@H]3CCO3)c2n1 (stereo partly shown) [Compound 117a]
EC50: 0.2 to 20 nM

Molecule: O=C(O)c1ccc2nc(CN3CCC(c4cccc5c4OC(c4ccc(Cl)cc4F)CO5)CC3)n(C[C@@H]3CCO3)c2n1 (single isomer, unassigned) [Compound 130b]
EC50: ≤ 0.2 nM

Molecule: N#Cc1ccc([C@H]2COc3c(cccc3C3CCN(Cc4nc5ccc(C(=O)O)nc5n4C[C@@H]4CCO4)CC3)O2)cc1 [Compound 118c]
EC50: 20 to 200 nM

Molecule: O=C(O)c1ccc2nc(CN3CCC(c4cccc5c4CCC(c4ccc(Cl)cc4F)O5)CC3)n(C[C@@H]3CCO3)c2n1 (stereo partly shown) [Compound 105a]
EC50: > 200 nM

Molecule: O=C(O)c1ccc2nc(CN3CCC(c4cccc5c4OCC(c4ccccc4)C5)CC3)n(C[C@@H]3CCO3)c2n1 (stereo partly shown) [Compound 103a]
EC50: 0.2 to 20 nM

Molecule: O=C(O)c1ccc2nc(CN3CCN(c4cccc5c4CCC(c4ccc(Cl)cc4F)O5)CC3)n(C[C@@H]3CCO3)c2n1 (stereo partly shown) [Compound 123a]
EC50: 20 to 200 nM

Molecule: Cc1ccc(C2COc3c(cccc3C3CCN(Cc4nc5ccc(C(=O)O)nc5n4C[C@@H]4CCO4)CC3)O2)cc1 (stereo partly shown) [Compound 116a]
EC50: ≤ 0.2 nM

Molecule: O=C(O)c1ccc2nc(CN3CCC(c4cccc5c4OC(c4ccc(Cl)cc4F)CO5)CC3)n(C[C@@H]3CCO3)c2n1 (stereo partly shown) [Compound 130a]
EC50: ≤ 0.2 nM

Molecule: O=C(O)c1ccc2nc(CN3CCC(c4cccc5c4OCC(c4ccccc4F)O5)CC3)n(C[C@@H]3CCO3)c2n1 (stereo partly shown) [Compound 109a]
EC50: 20 to 200 nM
